Molecular target: CDK2/cyclinE1 (Homo sapiens, UniProt P24941)
Test: Cyclin-dependent kinase activity assay (continuous ATP coupling assay), CDK2/cyclinE1
Details: CDK2/cyclinE1 5 nM, ATP 300 μM, Rb copeptide 100 μM, 15 min preincubation, pH 7.5, 1% DMSO
Listing of recorded IC50 by entry.

Known results for compounds:
compound=CNS(=O)(=O)c1ccc(Nc2ncc(C(F)(F)F)c(-n3cc(CC(C)(C)O)c(C)n3)n2)cc1 result="10 to 100 nM"
compound=CNS(=O)(=O)c1ccc(Nc2ncc(C(F)(F)F)c(-n3cc(N4CCN(C)CC4)cn3)n2)cc1 result="≤ 10 nM"
compound="CNS(=O)(=O)c1ccc(Nc2ncc(C(F)(F)F)c(-n3cc(C[C@@H](C)O)cn3)n2)cc1 (single isomer, unassigned)" result="≤ 10 nM"

Below: the item to evaluate.
So, `CNS(=O)(=O)c1ccc(Nc2ncc(C)c(-n3cc(CC(C)(C)O)cn3)n2)cc1` ? Its IC50 was 10 to 100 nM
